# pKd values compiled below
assayed target: T1, PUF4 RNA-binding domain (Saccharomyces cerevisiae, UniProt P25339 537-888)
T1 sequence: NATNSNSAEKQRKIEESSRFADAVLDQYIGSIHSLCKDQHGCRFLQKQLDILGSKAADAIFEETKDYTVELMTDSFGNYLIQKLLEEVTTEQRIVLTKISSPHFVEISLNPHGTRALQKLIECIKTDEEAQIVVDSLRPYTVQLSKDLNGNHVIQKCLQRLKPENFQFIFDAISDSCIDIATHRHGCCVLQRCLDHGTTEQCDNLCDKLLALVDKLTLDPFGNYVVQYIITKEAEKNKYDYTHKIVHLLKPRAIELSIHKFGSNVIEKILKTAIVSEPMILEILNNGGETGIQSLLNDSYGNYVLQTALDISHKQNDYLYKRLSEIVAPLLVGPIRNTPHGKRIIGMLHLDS
experiment description: Mg; RNA-MaP; 20 mM Na-HEPES pH 7.4, 30 mM KOAc, 0.75 mM MgCl2, 0.1% Tween-20, 5% glycerol, 0.1 mg/mL BSA, 2 mM DTT; 25 C; 0.0125-409.6 nM protein
conditions used: tags: N-His6-TEV cleaved; C-SNAP kept, Cy3B-labelled; label: tethered on chip by stalled RNA polymerase
Scale for pKd: -log10 of concentration given in mol/L; no unit attached.

Ib_S4_P5E.1_K5.1_C5.1_H5.1_[T3C]_A5.1_F5.1_[T8C]_T5.1 (ssRNA) RNA: UUUGACAACUGAUCGUUCUUUCUUGCAUUACUAUUCUUUCUCGAUCAGUUGUCUUU: 6.32
Id_ii_S2_P3E.4_K3.3_C3.2_[C-2G]_[T-1C]_H3.3_A3.1_F3.1_T3.2_[T9A] (ssRNA) RNA: UUUGAUUAAUAUGAUAUCGUUCUUUCUGCACACUAUAAAUUCUUUCUCGAUAUCAUAUUAAUCUUU: 7.41
UCUCUUCGUGUAUAUCUCUU (ssRNA) [Ib_S1_P3E.1_K3.1_C3.1_H3.1_[T1C]_[A4G]_A3.1_F3.1_T3.1]: 7.57

Please list pKd recorded for the binder Ia_S4_P5E.1_K5.1_C5.1_H5.1_A5.1_[T6C]_F5.1_T5.1 (ssRNA) RNA: UUUGACAACUGAUCGUUCUUUCUUGUAUCAUUAUUCUUUCUCGAUCAGUUGUCUUU
8.56

Give pKd for the following binder: UCUCUUAAUGUAUAUAAAUCUCUU (ssRNA) [Id_ii_S1_P3E.2_K3.1_C3.2_[C-2A]_[T-1A]_H3.1_A3.1_F3.1_T3.2_[T9A]]
7.68

The origin of these recorded values is paper PMC9352680.
